target: U1A (UniProt P09012 10-89); test: fluorescence polarization
Sequence (P09012 10-89): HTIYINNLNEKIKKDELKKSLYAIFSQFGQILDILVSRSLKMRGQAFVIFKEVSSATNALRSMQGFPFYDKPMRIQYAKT
measured.parameter: pKd
By convention, pKd is the negative base-10 log of a molar concentration.

binder="GGCAGATCTGAGCCTGGGAGCTCTCTGCC (structured_DNA) [TAR DNA]" measured_parameter=pKd numeric_value=3.84

Note to self: pKd recorded for GGCAGAUCUGAGCCUGGGAGCUCUCUGCC (structured_RNA) [TAR RNA] was 4.72
